# Measured target: RARγ (Homo sapiens, UniProt P13631)
# Sequence (P13631 whole entry): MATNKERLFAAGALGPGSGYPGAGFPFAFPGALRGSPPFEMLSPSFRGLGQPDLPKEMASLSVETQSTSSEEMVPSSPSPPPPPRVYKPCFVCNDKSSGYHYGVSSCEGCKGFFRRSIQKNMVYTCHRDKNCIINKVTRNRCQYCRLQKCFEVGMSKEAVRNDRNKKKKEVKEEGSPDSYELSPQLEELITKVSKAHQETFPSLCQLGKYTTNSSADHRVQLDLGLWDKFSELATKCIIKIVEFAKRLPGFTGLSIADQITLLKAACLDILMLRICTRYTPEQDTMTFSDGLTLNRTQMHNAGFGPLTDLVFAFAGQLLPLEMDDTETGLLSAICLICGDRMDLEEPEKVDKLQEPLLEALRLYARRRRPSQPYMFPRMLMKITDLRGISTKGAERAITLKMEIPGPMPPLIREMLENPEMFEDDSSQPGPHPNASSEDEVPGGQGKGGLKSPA
# Assay comment: RARγ transcriptional assay, antagonist activity
# Type: cell-based
# Condition description: in the presence of 0.5 nM TTNPB
pIC50: −log10 of the molar value.
Quantity: pIC50

>  <Compound>
CC#CC1=CC(C)(C)Oc2c(Br)cc(C(=O)Nc3ccc(C(=O)O)c(F)c3)cc21

>  <pIC50>
< 6.00

$$$$
>  <Compound>
CC(C)C1=CC(C)(C)Oc2c(Br)cc(C(=O)Nc3ccc(C(=O)O)c(F)c3)cc21

>  <pIC50>
< 6.00

$$$$
>  <Compound>
CN1CCC(C2=CC(C)(C)Oc3c(Br)cc(C(=O)Nc4ccc(C(=O)O)c(F)c4)cc32)CC1

>  <pIC50>
< 6.00

$$$$
>  <Compound>
CC1CCC(C2=CC(C)(C)Oc3c(Br)cc(C(=O)Nc4ccc(C(=O)O)c(F)c4)cc32)CC1 (centres unmarked)

>  <pIC50>
< 6.00

$$$$

Query: Query (compound): CC[C@H]1CC[C@H](C2=CC(C)(C)Oc3c(Br)cc(C(=O)Nc4ccc(C(=O)O)c(F)c4)cc32)CC1 ; field requested: pIC50
Result: 6.00 to 7.00

====

# Measured target: UniProt P13631
# Assay comment: RARγ transcriptional assay, agonist activity
# Condition description: agonist mode
# Text: Transcriptional assays for RARα, RARβ and RARγ, which measure the antagonist or agonist like activity of the compounds are described in WO 2017/201200 A1 (Thacher, Crowe, Tao and Raheja, Therapeutic compositions containing RAR-alpha antagonists) published on Nov. 23, 2017, which is also incorporated herein by reference. […]
pEC50: −log10 of the molar value.
Quantity: pEC50

Query: Param readout= pEC50; system= UniProt P13631; entry= CC1(C)C=C(C2CCOCC2)c2cc(C(=O)Nc3ccc(C(=O)O)c(F)c3)cc(Br)c2O1 [Compound 34] ; returns value.
Result: 6.00 to 7.00

Query: Param readout= pEC50; system= UniProt P13631; entry= CC[C@H]1CC[C@H](C2=CC(C)(C)Oc3c(Br)cc(C(=O)Nc4ccc(C(=O)O)c(F)c4)cc32)CC1 [Compound 39] ; returns value.
Result: < 6.00

Query: Param readout= pEC50; system= UniProt P13631; entry= CC(C)C1=CC(C)(C)Oc2c(Br)cc(C(=O)Nc3ccc(C(=O)O)c(F)c3)cc21 [Compound 33] ; returns value.
Result: 6.00 to 7.00

Query: Param readout= pEC50; system= UniProt P13631; entry= CN1CCC(C2=CC(C)(C)Oc3c(Br)cc(C(=O)Nc4ccc(C(=O)O)c(F)c4)cc32)CC1 [Compound 32] ; returns value.
Result: < 6.00

====

Listed compounds paired with reported EC50
# Measured target: RARα (Homo sapiens, UniProt P10276)
# Sequence (P10276 whole entry): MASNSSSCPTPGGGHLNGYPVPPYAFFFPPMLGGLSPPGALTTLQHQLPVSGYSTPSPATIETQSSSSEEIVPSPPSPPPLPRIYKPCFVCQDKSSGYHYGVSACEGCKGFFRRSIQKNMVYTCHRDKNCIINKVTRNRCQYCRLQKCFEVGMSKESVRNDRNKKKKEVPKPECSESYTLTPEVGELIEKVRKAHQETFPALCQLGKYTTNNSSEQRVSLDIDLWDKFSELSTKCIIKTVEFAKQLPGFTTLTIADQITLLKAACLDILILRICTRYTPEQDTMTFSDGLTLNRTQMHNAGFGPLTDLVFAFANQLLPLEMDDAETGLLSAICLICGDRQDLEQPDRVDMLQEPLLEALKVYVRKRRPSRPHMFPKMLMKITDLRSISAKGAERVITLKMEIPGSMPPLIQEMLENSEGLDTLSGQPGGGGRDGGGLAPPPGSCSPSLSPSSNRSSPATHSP
# Assay comment: RARα transcriptional assay, agonist activity
# Condition description: agonist mode

Below: 5 compounds and their reported EC50.
>  <Compound>
CN1CCC(C2=CC(C)(C)Oc3c(Br)cc(C(=O)Nc4ccc(C(=O)O)c(F)c4)cc32)CC1 [Compound 32]

>  <Measured target>
RARα (Homo sapiens, UniProt P10276)

>  <Quantity>
EC50

>  <Reported result>
> 1000 nM

$$$$
>  <Compound>
CC1(C)C=C([C@H]2CC[C@@H](C)CC2)c2cc(C(=O)Nc3ccc(C(=O)O)c(F)c3)cc(Br)c2O1 [Compound 36]

>  <Measured target>
RARα (Homo sapiens, UniProt P10276)

>  <Quantity>
EC50

>  <Reported result>
> 1000 nM

$$$$
>  <Compound>
CC[C@H]1CC[C@H](C2=CC(C)(C)Oc3c(Br)cc(C(=O)Nc4ccc(C(=O)O)c(F)c4)cc32)CC1 [Compound 39]

>  <Measured target>
RARα (Homo sapiens, UniProt P10276)

>  <Quantity>
EC50

>  <Reported result>
> 1000 nM

$$$$
>  <Compound>
CC(C)C1=CC(C)(C)Oc2c(Br)cc(C(=O)Nc3ccc(C(=O)O)c(F)c3)cc21 [Compound 33]

>  <Measured target>
RARα (Homo sapiens, UniProt P10276)

>  <Quantity>
EC50

>  <Reported result>
< 1 nM

$$$$
>  <Compound>
CC1(C)CCC(C2=CC(C)(C)Oc3c(Br)cc(C(=O)Nc4ccc(C(=O)O)c(F)c4)cc32)CC1 [Compound 38]

>  <Measured target>
RARα (Homo sapiens, UniProt P10276)

>  <Quantity>
EC50

>  <Reported result>
> 1000 nM

$$$$

Query: Query (compound): CC#CC1=CC(C)(C)Oc2c(Br)cc(C(=O)Nc3ccc(C(=O)O)c(F)c3)cc21 [Compound 37] ; field requested: EC50
Result: 11 to 100 nM

Query: Query (compound): CC[C@H]1CC[C@@H](C2=CC(C)(C)Oc3c(Br)cc(C(=O)Nc4ccc(C(=O)O)c(F)c4)cc32)CC1 [Compound 40] ; field requested: EC50
Result: > 1000 nM

Query: Query (compound): CC1(C)C=C(C2CCOCC2)c2cc(C(=O)Nc3ccc(C(=O)O)c(F)c3)cc(Br)c2O1 [Compound 34] ; field requested: EC50
Result: 101 to 1000 nM

Query: Query (compound): CC1CCC(C2=CC(C)(C)Oc3c(Br)cc(C(=O)Nc4ccc(C(=O)O)c(F)c4)cc32)CC1 (stereo not drawn) [Compound 35] ; field requested: EC50
Result: > 1000 nM
